- System Tested: Bromodomain-containing protein 4 (Homo sapiens)
- Applied Conditions: Compound concentration 20.0 uM
Residues, ends and D or L forms follow the SMILES beside them.
Strictly below -1 °C in ΔTm: rule met. Otherwise: rule not met.

Examples with answers:
Hi there! Is ΔTm for COc1c(CN)cc(CN)cc1OCCCN1Cc2ccccc2C1 below -1 °C, do you know?
rule met

Same again, this time with CCS(=O)(=O)Cc1cnc(Oc2ccc(F)cc2F)c(-c2cc(C)c3c(=O)[nH]ccn23)c1
rule not met

Same for C/C=C1\NC(=O)[C@H]2CSSCC/C=C/[C@H](CC(=O)N[C@H](C(C)C)C(=O)N2)OC(=O)[C@H](C(C)C)NC1=O
rule met

Note, next up: C[C@H](Nc1nc2c(cnn2C2CCCC2)c(=O)[nH]1)c1ccc(Cl)cc1
rule met

More entries:
API: query returns whether the molecule falls strictly under -1 °C in ΔTm. Query: COc1ccccc1[C@H]1[C@H](C(=O)O)[C@H](c2ccccc2OC)[C@H]1C(=O)Oc1cccc2ccccc12
rule met

Similarly, COc1ccc(-c2ccc3c(c2)COC3=O)n2nc(C3(C(=O)OCC(C)C)CC3)nc12 ?
rule not met

Another molecule to check: Nc1ncnc2c1c(I)cn2[C@@H]1O[C@H](CO)[C@@H](O)[C@H]1O
rule met

Then this molecule: C[C@@H]1CN(c2ncc(Cl)c(Nc3ccc4c(c3)n(CCC(C)(C)O)c(=O)n4C)n2)C[C@H](C)C1(F)F
rule not met

Try this molecule too: CNc1nccc(CN(CC2CCNCC2)S(=O)(=O)c2ccc(S(=O)(=O)N(Cc3ccc(Cl)cc3)C3CCCC3)cc2)n1
rule met

Similarly, Cc1noc2c1-c1ccccc1C(c1ccc(Cl)cc1)=N[C@H]2CC(N)=O ?
rule not met

Next molecule: O=C(O)c1cccc(-c2ccc(-c3cn(C(=O)N4CCCCC4Cc4ccccc4)nn3)cc2)c1 (stereo not given)
rule met

Next up: O=C(NCCCCCCCCNC(=O)C(Cl)Cl)C(Cl)Cl
rule met

Then this molecule: CC(C)c1cc(C(=O)N2Cc3ccc(CN4CCN(C)CC4)cc3C2)c(O)cc1O
rule met

Can you check CC(=O)N[C@H](C(=O)N[C@@H](CC(=O)O)C(=O)N[C@H](C(=O)N[C@@H](C)C(=O)N[C@H](C=O)CC(=O)O)C(C)C)C(C)C (Ac-VDVAD-aldehyde) next?
rule met

# iterate: CCOc1ccc2nc(-c3cccc(OCC(=O)NC(C)C)c3)nc(Nc3ccc(-c4cn[nH]c4)cc3)c2c1
rule not met

====

- System Tested: Transcription intermediary factor 1-alpha (Homo sapiens)
- Sequence (whole entry): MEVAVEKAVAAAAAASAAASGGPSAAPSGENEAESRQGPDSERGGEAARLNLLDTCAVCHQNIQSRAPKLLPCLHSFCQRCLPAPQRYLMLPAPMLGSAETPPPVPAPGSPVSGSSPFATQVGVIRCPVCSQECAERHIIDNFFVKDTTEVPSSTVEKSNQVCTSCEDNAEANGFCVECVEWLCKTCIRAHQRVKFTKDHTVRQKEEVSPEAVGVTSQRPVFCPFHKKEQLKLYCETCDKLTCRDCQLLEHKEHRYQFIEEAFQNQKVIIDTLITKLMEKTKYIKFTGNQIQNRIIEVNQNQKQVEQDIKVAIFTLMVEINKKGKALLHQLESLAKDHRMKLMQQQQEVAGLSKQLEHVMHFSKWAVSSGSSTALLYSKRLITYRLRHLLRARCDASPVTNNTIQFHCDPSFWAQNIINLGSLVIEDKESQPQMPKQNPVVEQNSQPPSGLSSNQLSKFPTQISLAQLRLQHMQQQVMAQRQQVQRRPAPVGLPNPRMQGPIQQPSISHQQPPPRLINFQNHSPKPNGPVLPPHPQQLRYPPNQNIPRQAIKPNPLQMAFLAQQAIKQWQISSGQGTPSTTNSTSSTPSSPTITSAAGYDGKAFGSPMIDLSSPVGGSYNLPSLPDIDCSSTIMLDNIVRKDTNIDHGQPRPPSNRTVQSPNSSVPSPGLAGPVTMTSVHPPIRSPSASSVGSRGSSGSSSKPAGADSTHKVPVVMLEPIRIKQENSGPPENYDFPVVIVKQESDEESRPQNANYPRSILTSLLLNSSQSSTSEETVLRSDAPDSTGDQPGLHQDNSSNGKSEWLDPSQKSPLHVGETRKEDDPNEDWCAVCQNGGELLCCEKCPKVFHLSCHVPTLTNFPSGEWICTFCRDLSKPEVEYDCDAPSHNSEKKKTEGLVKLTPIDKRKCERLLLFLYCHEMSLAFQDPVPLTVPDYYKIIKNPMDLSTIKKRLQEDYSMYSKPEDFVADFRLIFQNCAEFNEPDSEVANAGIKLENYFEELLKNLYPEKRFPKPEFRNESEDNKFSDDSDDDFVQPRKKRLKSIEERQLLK
- Applied Conditions: Compound concentration 20.0 uM
Readout Kind: ΔTm

Fill in the recorded ΔTm for this molecule, with Transcription intermediary factor 1-alpha (Homo sapiens) as test system: O=C(NCc1ncccc1F)c1coc(CCNCCc2nc3ccccc3[nH]2)n1
-0.59 °C

Below: the item to evaluate.
Lab request: please report ΔTm under test system Transcription intermediary factor 1-alpha (Homo sapiens) for COc1cc(C(=O)NCC2(N(C)C)CCCC2)cc(OC)c1OCc1ccccc1
3.25 °C

====

Measured ΔTm by item
- System Tested: Cyclin-dependent kinase 2 (Homo sapiens) (UniProt P24941)
- Applied Conditions: Compound concentration 20.0 uM
- Description: Thermal Shift Assay. Domain: start/stop: M1-L298
Value expressed in °C; do not type the unit.

Some solved entries appear below for comparison.
Which ΔTm value belongs to NC(=O)[C@H]1CCCCc2c1[nH]c1ccc(Cl)cc21 ?
0.22

Now give it for CC(=O)N[C@@H](Cc1ccc(O)cc1)C(=O)N[C@H](C(=O)N[C@@H](C)C(=O)N[C@@H](CC(=O)O)C(=O)CCl)C(C)C too.
-0.27

Same question, CN1CC(=O)N2[C@H](c3ccc4c(c3)OCO4)c3[nH]c4ccccc4c3C[C@@H]2C1=O this time
-0.06

Further cases:
For the compound Cn1nc(C(C)(C)C)cc1C(=O)NC(Cc1cccc(Cl)c1)C(=O)NCC#N (stereo unspecified) , what ΔTm is on record?
0.71

Now the compound Cc1cc(OCc2nnc(SC3CCCC3)n2-c2cccnc2)ccc1-c1ccc(S(C)(=O)=O)cc1
0.2

// next record CSc1cccc(Nc2ncc3cc(-c4c(Cl)cccc4Cl)c(=O)n(C)c3n2)c1
0.94

Same lookup for C[C@]1(c2nc3c(C(N)=O)cccc3[nH]2)CCCN1 , please.
-0.1

How about this compound: CC(C)(C)OC(=O)Nc1ccc(CNc2nccc(Nc3cc(C(=O)OC(C)(C)C)[nH]n3)n2)cc1
5.67

Cc1ncsc1-c1ccc([C@H](C)NC(=O)[C@@H]2C[C@@H](O)CN2C(=O)[C@@H](NC(=O)CNC(=O)c2ccc(F)c(-c3ccc(N4C[C@@H](C)N(C)[C@@H](C)C4)c(NC(=O)c4c[nH]c(=O)cc4C(F)(F)F)c3)c2)C(C)(C)C)cc1 , same question.
-0.94

Request: O=C(NCc1ccc(Cl)cc1)C1CCN(S(=O)(=O)c2cc(Cl)cc(Cl)c2)CC1
0.17

Thanks! And CCCN(CCC)c1ccc(C=O)cc1Br ?
-0.15

====

// values below are reported ΔTm
- System Tested: Mitogen-activated protein kinase 1 (Homo sapiens) (UniProt P28482)
- Sequence (P28482 whole entry): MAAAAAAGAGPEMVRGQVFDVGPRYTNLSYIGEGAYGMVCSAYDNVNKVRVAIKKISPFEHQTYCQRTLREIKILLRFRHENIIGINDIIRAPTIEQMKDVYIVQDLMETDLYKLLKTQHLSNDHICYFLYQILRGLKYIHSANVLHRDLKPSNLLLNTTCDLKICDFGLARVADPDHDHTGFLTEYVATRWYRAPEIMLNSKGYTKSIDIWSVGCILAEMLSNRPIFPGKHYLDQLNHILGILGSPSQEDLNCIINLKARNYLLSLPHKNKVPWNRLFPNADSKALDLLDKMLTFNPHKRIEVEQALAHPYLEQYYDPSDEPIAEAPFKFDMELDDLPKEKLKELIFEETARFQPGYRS
- Applied Conditions: Compound concentration 20.0 uM
- Description: Thermal Shift Assay. Domain: start/stop: M1-S360
Residues, ends and D or L forms follow the SMILES beside them. *: point of attachment. Cbz = O=C(OCc1ccccc1)*
Record the value in °C, omitting the unit from your answer.

Example results:
Form entry - test system: Mitogen-activated protein kinase 1 (Homo sapiens) (UniProt P28482); read-out: ΔTm; compound: O=CC1CCCN1C(=O)C1CCCN1C(=O)OCc1ccccc1 (stereo not drawn) (Cbz-Pro-Pro-aldehyde; configuration not given here)
0.12

Okay, and Cc1ncsc1-c1ccc(CNC(=O)[C@@H]2C[C@@H](O)CN2C(=O)[C@@H](NC(=O)COCC(C)(COCCOCCOCCNC(=O)C[C@@H]2N=C(c3ccc(Cl)cc3)c3c(sc(C)c3C)-n3c(C)nnc32)COCCOCCOCCNC(=O)C[C@@H]2N=C(c3ccc(Cl)cc3)c3c(sc(C)c3C)-n3c(C)nnc32)C(C)(C)C)cc1 ?
-12

Record: CC/C(=C(/CC)c1ccc(O)cc1)c1ccc(O)cc1
-12.2

Param item: Cc1cc(OCc2nnc(SC3CCCC3)n2-c2cccnc2)ccc1-c1ccc(S(C)(=O)=O)cc1
0

What about this compound? CC(=O)N[C@@H](CC(C)C)C(=O)N[C@@H](CCC(=O)O)C(=O)N[C@@H](Cc1cnc[nH]1)C(=O)N[C@H](C=O)CC(=O)O (Ac-LEHD-aldehyde)
-0.4

Field entry: CNc1cc(-c2cccc(Cl)c2Cl)nc(N)n1
0.22

Same question, C[C@@H](Nc1nc2c(cnn2C2CCCC2)c(=O)[nH]1)C(=O)N1CC[C@H](F)C1 this time
0.07

Okay, and CNC(=O)Cn1cc(-c2ccc3c(c2)[C@H](F)C[C@]32NC(=O)N(CC(=O)N(Cc3ccc(F)cc3)[C@@H](C)C(F)(F)F)C2=O)cn1 ?
-6.46

COc1ccc2c(c1)OC(C)(C)C(c1ccccc1)C2c1ccc(OCCN2CCCC2)cc1 (stereo not drawn) ?
-2.68

// repeat for COc1cc(O)cc(CN2CCc3c(cc(Cn4ccn(C)c4=N)cc3-c3ccc(F)cc3C)C2=O)c1 and report
0.04

More entries:
Identify the measured ΔTm of CC(C)(C)OC(=O)NCCCCCN(CCc1ccccc1)C(=O)n1cc(-c2ccc(OC(F)(F)F)cc2)nn1 for Mitogen-activated protein kinase 1 (Homo sapiens) (UniProt P28482).
0.71

The origin of these recorded values is ChEMBL document CHEMBL5724796.
